tested on: Rattus norvegicus; assay: Antiallergic activity in po dosed Sprague-Dawley rat passive cutaneous analphylaxis model assessed as inhibition of allergic response administered 10 mins prior to antigen challenge; type: functional; settings: read-out: ID50 (the source's name)
measured_parameter: ED50 (mg/kg)
Just the number in mg/kg, nothing appended.

Examples from the recorded data:
{"molecule": "COc1cccc(-c2ncc(C(=O)O)c(=O)[nH]2)c1", "unit_string": "mg/kg", "value": 10}
{"molecule": "COc1ccc(-c2ncc(C(=O)O)c(=O)[nH]2)c(OC)c1", "unit_string": "mg/kg", "value": 5}

# evaluate next
Log: Rattus norvegicus, molecule CCOC(=O)c1cnc(-c2cccc3c2OC(C)C3)[nH]c1=O (racemic) , ED50 = 5

###

tested on: Rattus norvegicus; experiment: Antiallergic activity in po dosed Sprague-Dawley rat passive cutaneous analphylaxis model assessed as inhibition of allergic response administered 10 mins prior to antigen challenge; type: functional; settings: read-out: ID50 (the source's name)
Each entry below carries its recorded ED50.
Just the number in mg/kg, nothing appended.

Examples from the recorded data:
{"compound": "CCOC(=O)C(=O)Nc1ccc(OCC)c(-c2ncc(C(=O)O)c(=O)[nH]2)c1", "ED50, mg/kg": 25}
{"compound": "CCOC(=O)c1cnc(-c2ccc(OC)cc2OC)[nH]c1=O", "ED50, mg/kg": 5}
{"compound": "CCOC(=O)c1cnc(-c2ccccc2OC(C)CC)[nH]c1=O (centres undefined)", "ED50, mg/kg": 0.5}
{"compound": "CCOC(=O)C(=O)Nc1ccc(OCC)c(-c2ncc(C(=O)OCC)c(=O)[nH]2)c1", "ED50, mg/kg": 5}
{"compound": "O=C(O)c1cnc(-c2ccccc2OCC2CC2)[nH]c1=O", "ED50, mg/kg": 0.1}
{"compound": "O=C(O)c1cnc(-c2ccccc2)[nH]c1=O", "ED50, mg/kg": 50}

Log: Rattus norvegicus, compound `CCOC(=O)c1cnc(-c2ccccc2O)[nH]c1=O` , ED50 = 5

Log: Rattus norvegicus, compound `C=CCOc1ccccc1-c1ncc(C(=O)O)c(=O)[nH]1` , ED50 = 0.5

Log: Rattus norvegicus, compound CCC(C)Oc1ccccc1-c1ncc(C(=O)O)c(=O)[nH]1 (centres undefined) , ED50 = 0.5

Log: Rattus norvegicus, compound `CCCCCOc1ccccc1-c1ncc(C(=O)OCC)c(=O)[nH]1` , ED50 = 2

Log: Rattus norvegicus, compound `Cn1c(-c2ccccc2)ncc(C(=O)O)c1=O` , ED50 = 50

Log: Rattus norvegicus, compound `COc1ccc(OC)c(-c2ncc(C(=O)O)c(=O)[nH]2)c1` , ED50 = 1

###

Each entry below carries its recorded ED50.
test system: Rattus norvegicus; test: Antiallergic activity in po dosed Sprague-Dawley rat passive cutaneous analphylaxis model assessed as inhibition of allergic response administered 10 mins prior to antigen challenge; assay type: functional; details: read-out: ID50 (the source's name)

{"entry_smiles": "CCOc1ccc(S(N)(=O)=O)cc1-c1ncc(C(=O)O)c(=O)[nH]1", "ED50": "> 50 mg/kg"}

Looking up `COc1nc(-c2ccccc2)ncc1C(=O)O` , I see its ED50 listed as > 10 mg/kg

Looking up `CCOc1ccc(S(=O)(=O)N(C)C)cc1-c1ncc(C(=O)O)c(=O)[nH]1` , I see its ED50 listed as > 50 mg/kg

Looking up `CCCCOc1ccccc1-c1ncc(C(=O)OCC)c(=O)[nH]1` , I see its ED50 listed as 0.5 mg/kg

Looking up `COc1ccccc1-c1ncc(C(=O)O)c(=O)[nH]1` , I see its ED50 listed as 10 mg/kg

Looking up `CCOC(=O)c1cnc(-c2ccccc2F)[nH]c1=O` , I see its ED50 listed as > 10 mg/kg

FYI, the data here is from ChEMBL document CHEMBL3228016.
